Target: Jun bZIP R263A;Fos bZIP R144A (human;human, UniProt P05412;P01100 252-315;137-200, R263A|R144A)
Sequence (P05412 252-315 R263A, chain 1 of 2): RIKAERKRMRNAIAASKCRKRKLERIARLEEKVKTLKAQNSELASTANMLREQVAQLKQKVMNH
Sequence (P01100 137-200 R144A, chain 2 of 2): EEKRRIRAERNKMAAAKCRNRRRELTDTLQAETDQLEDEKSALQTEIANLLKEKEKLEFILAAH
Test: ITC
readoutName: Kd (µM)
Give bare numbers, in µM.

Please give the documented Kd of TRE duplex 15-mer (dsDNA) DNA 1: CGCGTGACTCACCCC DNA 2: GGGGTGAGTCACGCG
4.21

// data source = paper PMC3154423
